Where these numbers come from: ChEMBL document CHEMBL1201862

# Test system: TK-10
# method_notes: NCI tumour cell line growth inhibition, 48 h
Activity calls are given as the source filed them. No stated cut-off is given here; in the data, active = GI50 up to about 1.1 µM and inactive = higher. Starred links: 1 amine or outer side, 2 acyl side, 3 side chain; linkers in the order of their positions; H or OH if unused. Non-standard residues stand in square brackets, D forms with d. Residues, ends and D or L forms follow the SMILES beside them. X4 = C[C@H](N[*:1])C(=O)C(C)(C)C(=O)[*:2]; Hmpa(2S,3S) = CC[C@H](C)[C@H](O)C(=O)O; NMeY = CN[C@@H](Cc1ccc(O)cc1)C(=O)O; NMeL = CN[C@@H](CC(C)C)C(=O)O; NMeV = CN[C@H](C(=O)O)C(C)C; βAla = NCCC(=O)O
# GI50 per record follows

Some compounds with recorded GI50:
compound	readout_value
C(=C/CCCN1O[C@@H](CCCCCCCCc2cccnc2)[C@H]2CCC[C@H]21)/CCCCCCCCCc1cccnc1	18.4 µM (inactive)
CC[C@H](C)[C@@H]1OC(=O)CCNC(=O)[C@@H](C)NC(=O)C(C)(C)C(=O)[C@H](C)NC(=O)[C@H](Cc2ccc(OC)cc2)N(C)C(=O)[C@H](C(C)C)N(C)C(=O)CNC(=O)[C@H](CC(C)C)N(C)C(=O)CNC1=O (cyclo(G[NMeL]G[NMeV][NMeY](Me)[X4][dA][βAla][Hmpa(2S,3S)]))	1.67 µM (inactive)
C[n+]1c2ccccc2c(C(=O)Nc2ccc(S(=O)(=O)Nc3ccnn3-c3ccccc3)cc2)c2ccccc21	> 100 µM (inactive)

Value of measured GI50 for the entry `O=C(c1ccccc1)c1c(C(F)(F)F)[n+]([O-])c2cc(F)c(F)cc2[n+]1[O-]` : 0.195 µM (active)

Value of measured GI50 for the entry `[N-]=[N+]=Nc1ccccc1C(=O)N1C(=O)c2ccccc2C(=O)N(C(=O)c2ccccc2N=[N+]=[N-])c2ccccc21` : 67.5 µM (inactive)

Value of measured GI50 for the entry `O=C(O)CSc1cc(-c2ccccc2)nc2ccccc12` : 64.1 µM (inactive)

Value of measured GI50 for the entry CC1=COC2=C(C)C(=O)C(=O)c3c(C)ccc1c32 [MANSONONE F] : 42.1 µM (inactive)
